Tested on: ADCK4
Assay conditions: concentration: 1 μM, replicates: in singlicate; n = 1
Readout name: %Inh (%)
Numeric only. Scale: %

Some entries whose results are on file:
Give the measured %Inh of "COC(=O)c1c(-c2ccccc2)c2cc(Cl)ccc2c(=O)n1Cc1ccc(S(C)(=O)=O)cc1" .
0

Consider the compound shown here: "CNc1nccc(-c2c(-c3ccc(F)cc3)ncn2CCCN2CCOCC2)n1" What is its recorded %Inh?
0

Fill in: %Inh of "CC(C)(C)c1ccc(-n2cnc3c(N)ncnc32)cc1" is ___
0

Others:
Item CC(C)(C)OC(=O)NC1CCCN(c2cc(-c3ccc4c(N)n[nH]c4c3)nc(N)n2)C1 (stereo not drawn) has what recorded %Inh?
5

Fill blank: measured %Inh of the compound "Fc1ccc(Nc2nccc(-c3c(-c4ccc(Cl)cc4)nn4ncccc34)n2)cc1F" is ____.
0

Suppose we examine the compound "Oc1ccc2ncnc(Nc3ccc(OCc4ccccc4)cc3)c2c1" ; what %Inh value has been reported?
0

Give the measured %Inh of "Nc1nc(-c2cccnc2)c(-c2ccnc3ccccc23)s1" .
45

Tell me the measured %Inh of "CNc1nccc(-c2c(-c3ccc(F)cc3)ncn2C2CCN(C)CC2)n1" , please.
22

Could you share which %Inh value was measured for "C[C@@H]1CCN(C(=O)CO)C[C@@H]1N(C)c1ncnc2[nH]ccc12" ?
0

Fill in the blank: the reported %Inh of "COc1ccc(NC(=O)Nc2ccc(C)c(-c3ccc(C(=O)Nc4ccncc4)cc3)c2)cc1" is ____.
34

%Inh for "Fc1ccc(-c2ncn(CCCNCc3ccccc3)c2-c2ccncc2)cc1" ?
0

Using the record for "Cl.Cl.c1ccc(-c2cc3ccncc3cc2OC2CCNCC2)cc1" , report its %Inh.
42

%Inh lookup needed for "O=C(CCO)NCCn1ccc2ncnc(Nc3ccc(Oc4cccc(C(F)(F)F)c4)c(Cl)c3)c21" , thanks.
0

GET /values?readout=%Inh&item= COc1ccc(Nc2nccc(N3CCC(NC(=O)c4cccc(NC(C)=O)c4)C3)n2)cc1 (stereo not drawn)
36

----------
This document collects pKd values reported for JAK2(JH1domain-catalytic).
pKd: −log10 of the molar value.

Answered cases to consult:
Recall the recorded pKd for Nc1nc(-c2ccc3c(N)n[nH]c3c2)cc(N2CCC[C@@H](C(=O)Nc3ccccc3)C2)n1.O=C(O)C(F)(F)F.O=C(O)C(F)(F)F [GSK2288359] with JAK2(JH1domain-catalytic) and state it.
< 5.00

Any idea what pKd came out for "C[C@@H]1CCN(C(=O)CO)C[C@@H]1N(C)c1ncnc2[nH]ccc12" on JAK2(JH1domain-catalytic)?
7.96

New cases:
I'm curious: which pKd was measured for Cl.c1ccc(Cn2ccc3cc(Nc4ncnc5ccccc45)ccc32)cc1 [GW275568] tested on JAK2(JH1domain-catalytic)?
< 5.00

----------
# %Inh annotations
Test system: BRSK2
Assay conditions: concentration: 1 μM, replicates: in singlicate; n = 1
Write down the numeric answer in % and omit the unit.

Bench note: what %Inh did Clc1cccc(-c2nc(Nc3ccncc3)c3ccccc3n2)c1 [GW873004] show?
23

# query: %Inh of entry COc1cc2c(Nc3cccc(NC(=O)c4ccccc4)c3)ncnc2cc1OCCCN1CCOCC1 [GSK223810]
10

Look at this compound and give its reported %Inh. Nc1nc(-c2ccc3c(N)n[nH]c3c2)cc(N2CCCCC2)n1 [GSK2228768]
0

Fill in the blank: the reported %Inh of FC(F)(F)c1ccc(-c2cc(-c3c[nH]nc3-c3ccccn3)ccn2)cc1 [GW599550] is ____.
0

We now examine a further compound.
Which %Inh is listed for "Fc1ccc(-c2ncn(CCCNCc3ccccc3)c2-c2ccncc2)cc1" ?
0

----------
System: YANK2
Construct: gene STK32B
Assay conditions: concentration: 1 μM, replicates: in singlicate; n = 1
Readout name: %Inh (%)
Output spec: scalar in %, unitless text.

Missing value: %Inh, YANK2, entry FC(F)(F)c1ccc(-c2nn3ncccc3c2-c2ccnc(Nc3cccc(C(F)(F)F)c3)n2)cc1 [GW828205] . Fill in?
0

Form entry - test system: YANK2; read-out: %Inh; compound: CS(=O)(=O)CCNCc1nc(-c2ccc3ncnc(Nc4ccc(OCc5cccc(F)c5)c(Cl)c4)c3c2)cs1.Cl [GW583340]
0

Missing value: %Inh, YANK2, entry Nc1nc(-c2ccc3c(N)n[nH]c3c2)cc(N2CCC[C@@H](C(=O)Nc3ccccc3)C2)n1.O=C(O)C(F)(F)F.O=C(O)C(F)(F)F [GSK2288359] . Fill in?
0

Others:
Form field: %Inh recorded for CN1CCC(n2cnc(-c3ccc(F)cc3)c2-c2ccnc(NC3CCNCC3)n2)CC1 [SB-229482] with YANK2 (enter value)
2

----------
Test system: RSK3(Kin.Dom.1-N-terminal)
Construct: gene RPS6KA2
Assay conditions: concentration: 1 μM, replicates: in singlicate; n = 1
Note that class boundaries on %Inh are band A (below 3%), band B (3% to below 20%), band C (20% or more)

Record excerpt, results attached:
# bin lookup: classify "Cc1ccc(NC(=O)c2cccc(C#N)c2)cc1-c1ccc(C(=O)Nc2ccncc2)cc1" by its %Inh
band B

Please indicate the class for "CS(=O)(=O)CCNCc1ccc(-c2ccc3ncnc(Nc4ccc(OCc5ccccc5)c(Cl)c4)c3c2)o1.Cl" based on its %Inh.
band B

Continuing:
Would you mind sorting "CC(=O)Nc1n[nH]c2ncc(-c3ccccc3)cc12" into the appropriate category?
band C

Entry "CS(=O)(=O)CCNCc1nc(-c2ccc3ncnc(Nc4ccc(OCc5cccc(F)c5)c(Cl)c4)c3c2)cs1.Cl" belongs to which category?
band A

----------
Observed pKd for EGFR, reported per entry below.
Remember the convention: pKd equals -log10 of concentration in molar.

Reference set (3 entries):
Test system EGFR; read-out pKd; what value for "COc1cc2c(Nc3cccc(NC(=O)c4ccccc4)c3)ncnc2cc1OCCCN1CCOCC1" ?
5.85

Notebook entry, EGFR assay: pKd of "N#Cc1ccc(Oc2ccc(Nc3ncnc4cc[nH]c34)cc2Cl)cc1" = ?
7.01

Lookup: pKd / EGFR / "NC(=O)c1sc(-n2cnc3ccccc32)cc1OCc1ccccc1F"
5.89

Further cases:
Param readout = pKd; param system = EGFR; param query = "Cn1ccc2ncnc(Nc3ccc(Oc4cccc(Cl)c4)c(Cl)c3)c21" ; response: value
8.37

Fill in the recorded pKd for this compound, with EGFR as test system: "Cl.O=S(=O)(c1cccc(F)c1)c1ccc(Nc2ncnc3cc(Br)sc23)cc1Cl"
7.21

Reported pKd for EGFR, given "Fc1cccc(COc2ccc(Nc3ncnc4cc[nH]c34)cc2Cl)c1" ?
8.89

Give EGFR pKd for "Oc1ccc2ncnc(Nc3ccc(OCc4ccccc4)cc3)c2c1"
8.03

Recorded pKd for "Cl.c1ccc(Cn2ccc3cc(Nc4ncnc5ccccc45)ccc32)cc1" with EGFR, please?
8.30

// map "Fc1cccc(COc2ccc(Nc3ncnc4sc(-c5ccc[nH]5)cc34)cc2Cl)c1" to recorded pKd (system: EGFR)
8.59

----------
System: WEE2
Assay conditions: concentration: 1 μM, replicates: in singlicate; n = 1
Readout name: %Inh (%)
The response must be a number in % with no trailing unit.

Reference set (3 entries):
Please give the measured %Inh for this molecule: CC(C)(C)OC(=O)NC1CCCN(c2cc(-c3ccc4c(N)n[nH]c4c3)nc(N)n2)C1 (stereo not shown) [GSK2286096]
0

What measured %Inh goes with "O=C(CCO)NCCn1ccc2ncnc(Nc3ccc(Oc4cccc(C(F)(F)F)c4)c(Cl)c3)c21" ?
0

Reported %Inh for "O=C(NCCCN1CCCC1=O)c1cnc(NCc2cc(Cl)ccc2Cl)nc1NC1CCNCC1" : what is it?
0

***
What value of %Inh has been reported for the following molecule? Nc1nc(-c2cccnc2)c(-c2ccnc3ccccc23)s1 [GW684083]
11

----------
System: RSK2(Kin.Dom.2-C-terminal)
Construct: gene RPS6KA3
Assay conditions: concentration: 1 μM, replicates: in singlicate; n = 1
Readout name: %Inh (%)
Dear colleague, please return just the value in %, with no unit written.

Return reported %Inh; argument: "CC(C)N1CCC(n2cnc(-c3ccc(F)cc3)c2-c2ccnc(N)n2)CC1"
29

May I ask what %Inh has been recorded for "Nc1nc(-c2ccccn2)c(-c2ccnc3ccccc23)s1" ?
9

Please look up its %Inh: "Clc1ccc(-c2cc(-c3c[nH]nc3-c3ccccn3)ccn2)cc1"
21

Value lookup for %Inh; key = "Cn1ccc2ncnc(Oc3ccc(NC(=O)Nc4cccnc4)c(Cl)c3)c21"
0

# %Inh lookup, item "Fc1ccc(-c2ncn(CCCNCc3ccccc3)c2-c2ccncc2)cc1"
22

What does the data say about its %Inh? Entry: "CS(=O)(=O)CCNCc1ccc(-c2ccc3ncnc(Nc4ccc(OCc5ccccc5)c(Cl)c4)c3c2)o1.Cl"
29

More entries:
Quick one: %Inh for "OCCOCCn1ccc2ncnc(Nc3ccc(Oc4cccc(Cl)c4)c(Cl)c3)c21" ?
0

Look up %Inh for this compound: "Clc1cccc(-c2nc(Nc3ccncc3)c3ccccc3n2)c1"
40

Quick one: %Inh for "CNc1nccc(-c2c(-c3ccc(F)cc3)ncn2CCCN2CCOCC2)n1" ?
55

// lookup %Inh for "COc1ccc(NC(=O)Nc2ccc(C)c(-c3ccc(C(=O)Nc4ccncc4)cc3)c2)cc1"
0

Returns the measured %Inh for the input compound. Input: "Cn1cc(-c2ccc3c(c2)CCN3C(=O)Cc2cccc(C(F)(F)F)c2)c2c(N)ncnc21"
0

What does the record list as %Inh for "c1ccc(-c2ccc3c(-c4ccnc(Nc5ccc6c(c5)OCCO6)n4)cnn3n2)cc1" ?
23

Which value of %Inh has been reported for "O=C(c1ccc(-c2cc(-c3c[nH]nc3-c3ccccn3)ccn2)cc1)N1CCCC1" in the records?
39

# input compound: "CNc1nccc(-c2c(-c3ccc(F)cc3)ncn2C2CCN(C)CC2)n1" ; wanted: its %Inh
0
